Target: human S1P1 receptor (Homo sapiens)
Construct: membranes used
Assay: GTP γ35S binding assay for S1P1 activity
Details: activity potency, S1P1 receptor from GTP γ35S binding; membranes; test compounds 0.08 to 5,000 nM
Protocol: Compounds were synthesized and tested for S1P1 activity using the GTP γ^35S binding assay. These compounds may be assessed for their ability to activate or block activation of the human S1P1 receptor in cells stably expressing the S1P1 receptor. GTP γ^35S binding was measured in the medium containing (mM) HEPES 25, pH 7.4, MgCl2 10, NaCl 100, dithitothreitol 0.5, digitonin 0.003%, 0.2 nM GTP γ^35S, and 5 μg membrane protein in a volume of 150 μl. […]
readout-name: EC50 (nM)

INSERT INTO assay_data (molecule, quantitative_result) VALUES
  ('Cc1ccc(CC(C#Cc2ccc(OCC(O)CO)c(Cl)c2)c2cccc(F)c2)cc1C (stereo not shown)', 600),
  ('Cc1ccc(CC(/C=C/c2ccc(CNCCC(=O)O)cc2)c2cccc(F)c2)cc1C (stereo not shown)', 265),
  ('Cc1ccc(CC(C#Cc2ccc(CNCCCP(=O)(O)O)cc2C)c2cccc(F)c2)cc1C (stereo not shown)', 1890),
  ('Cc1ccc(CC(C#Cc2ccc(CNCCCP(=O)(O)O)cc2Br)c2cc(F)cc(F)c2)cc1C (stereo not shown)', 31),
  ('Cc1ccc(CC(/C=C/c2ccc(CNCCCP(=O)(O)O)cc2)c2cccc(F)c2)cc1C (stereo not shown)', 172),
  ('Cc1cccc(C(C#Cc2ccc(CNCCCP(=O)(O)O)cc2)Cc2ccc(C)c(C)c2)c1 (stereo not shown)', 117),
  ('Cc1ccc(CC(C#Cc2ccc(CNCCC(=O)O)cc2C)c2cccc(Cl)c2)cc1C (stereo not shown)', 262),
  ('Cc1cccc(C(C#Cc2ccc(CNCCCP(=O)(O)O)cc2-c2cccs2)Cc2ccc(C)c(C)c2)c1 (stereo not shown)', 179),
  ('Cc1ccc(CC(C#Cc2ccc(CNCCCP(=O)(O)O)cc2Br)c2cccc(F)c2)cc1C (stereo not shown)', 6),
  ('Cc1cccc(C(C#Cc2ccc(OCC(O)CO)c(Cl)c2)Cc2ccc(C)c(C)c2)c1 (stereo not shown)', 401),
  ('COc1cccc(C(C#Cc2ccc(CNCCC(=O)O)cc2)Cc2ccc(C)c(C)c2)c1 (stereo not shown)', 247),
  ('Cc1ccc(CC(C#Cc2ccc(OCC(O)CO)c(Cl)c2)c2cccc(Cl)c2)cc1C (stereo not shown)', 238),
  ('Cc1ccc(CC(C#Cc2ccc(CNCCC(=O)O)cc2)c2cccc(Cl)c2)cc1C (stereo not shown)', 66),
  ('Cc1ccc(CC(C#Cc2ccc(CNCCC(=O)O)cc2)c2ccc(Cl)cc2)cc1C (stereo not shown)', 480),
  ('Cc1ccc(CC(C#Cc2ccc(CNCCCP(=O)(O)O)cc2)c2cccc(Cl)c2)cc1C (stereo not shown)', 75.4),
  ('Cc1cccc(C(C#Cc2ccc(CNCCCP(=O)(O)O)cc2-c2ccco2)Cc2ccc(C)c(C)c2)c1 (stereo not shown)', 59);

###

target: human S1P1 receptor (Homo sapiens, UniProt P21453); construct: membranes used; test: GTP γ35S binding assay for S1P1 activity; conditions: activity potency, S1P1 receptor from GTP γ35S binding; membranes; test compounds 0.08 to 5,000 nM
Sequence (P21453 whole entry): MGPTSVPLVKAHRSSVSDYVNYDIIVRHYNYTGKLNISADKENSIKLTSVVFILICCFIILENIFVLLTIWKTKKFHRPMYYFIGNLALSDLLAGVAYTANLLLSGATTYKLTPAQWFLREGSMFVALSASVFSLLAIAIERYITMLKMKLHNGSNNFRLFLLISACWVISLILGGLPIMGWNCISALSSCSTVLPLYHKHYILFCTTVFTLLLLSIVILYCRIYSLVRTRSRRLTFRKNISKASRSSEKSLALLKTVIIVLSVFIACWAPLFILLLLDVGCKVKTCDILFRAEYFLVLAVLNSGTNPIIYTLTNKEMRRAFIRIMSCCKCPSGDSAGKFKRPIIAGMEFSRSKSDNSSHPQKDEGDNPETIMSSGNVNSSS
Reported log10(EC50) values for a set of compounds
readout-name: log10(EC50) (log10 of the value in nM)

INSERT INTO measurements (compound, readout_name, quantitative_result) VALUES
  ('Cc1cccc(C(C#Cc2ccc(CNCCC(=O)O)cc2)Cc2ccc(C)c(C)c2)c1 (centres unmarked) [Compound 4]', 'log10(EC50)', 2.70),
  ('Cc1cccc(C(C#Cc2ccc(CNCCCP(=O)(O)O)cc2C)Cc2ccc(C)c(C)c2)c1 (centres unmarked) [Compound 11]', 'log10(EC50)', 1.75),
  ('COc1cccc(C(C#Cc2ccc(CNCCCP(=O)(O)O)cc2)Cc2ccc(C)c(C)c2)c1 (centres unmarked) [Compound 7]', 'log10(EC50)', 2.20),
  ('Cc1ccc(CC(C#Cc2ccc(CNCCCP(=O)(O)O)cc2-c2ccco2)c2cccc(F)c2)cc1C (centres unmarked) [Compound 14]', 'log10(EC50)', 2.38),
  ('Cc1ccc(CC(C#Cc2ccc(CNCCCP(=O)(O)O)cc2C)c2cccc(Cl)c2)cc1C (centres unmarked) [Compound 10]', 'log10(EC50)', 1.25);
